# System: E. faecalis ATCC 29212
# method-summary: MIC, CLSI broth microdilution (Table 1)
# Assay type: cell-based
# condition-notes: Enterococcus faecalis, ATCC29212; Gram positive; MHB, 37° C., 16-20 hours; read-out: MIC E. faecalis ATCC 29212
Counter-ions that a name gives are not always drawn.
Record form. Attribute: MIC. Fill in for each entry.

Inquiry: Identify measured MIC associated with COc1ccc(-c2ccn3c(=O)c(C(=O)O)cc(C4CC4)c3c2C)cc1 [Example 47 K salt]
Reply text: 0.032 to 0.064 µg/mL

Inquiry: Identify measured MIC associated with Cc1c(-c2cc(Cl)c(N)c(Cl)c2)ccn2c(=O)c(C(=O)O)cc(C3CC3)c12 [Example 29 K salt]
Reply text: 0.008 to 0.016 µg/mL

Inquiry: Identify measured MIC associated with Cc1c(-c2cc(F)c(N)cc2F)c(F)cn2c(=O)c(C(=O)O)cc(C3CC3)c12 [Example 38 K salt]
Reply text: 0.008 to 0.016 µg/mL

====

# System: H. influenzae ATCC 49247
# method-summary: MIC, CLSI broth microdilution (Table 2)
# Type: cell-based
# condition-notes: Haemophilus influenzae, ATCC49247; Gram negative; MHB, 37° C., 16-20 hours; read-out: MIC H. influenzae ATCC 49247
Structures can show the parent of a compound that is named as a salt.
Record form. Attribute: MIC. Fill in for each entry.

Inquiry: Identify measured MIC associated with Cc1c(-c2ccnc(F)c2)ccn2c(=O)c(C(=O)O)cc(C3CC3)c12 [Example 20 K salt]
Reply text: ≤ 4 ng/mL

Inquiry: Identify measured MIC associated with Cc1c(-c2cc(Cl)c(N)c(Cl)c2)ccn2c(=O)c(C(=O)O)cc(C3CC3)c12 [Example 29 K salt]
Reply text: 8 to 16 ng/mL

Inquiry: Identify measured MIC associated with Cc1c(N2CCC[C@H](N)C2)ccn2c(=O)c(C(=O)O)cc(C3CC3)c12 [Example 35 K salt]
Reply text: 8 to 16 ng/mL

Inquiry: Identify measured MIC associated with Cc1c(-c2cccnc2)ccn2c(=O)c(C(=O)O)cc(C3CC3)c12 [Example 17 K salt]
Reply text: ≤ 4 ng/mL

====

# System: H. influenzae ATCC 49247
# method-summary: MIC, CLSI broth microdilution (Table 2)
# Assay type: cell-based
# condition-notes: Haemophilus influenzae, ATCC49247; Gram negative; MHB, 37° C., 16-20 hours; read-out: MIC H. influenzae ATCC 49247
Structures can show the parent of a compound that is named as a salt.
readout-label: MIC

Inquiry: Identify measured MIC associated with Cc1c(-c2ccc(CO)cc2)ccn2c(=O)c(C(=O)O)cc(C3CC3)c12 [Example 48 K salt]
Reply text: ≤ 4 ng/mL

Inquiry: Identify measured MIC associated with Cc1c(-c2ccc(N)c(Cl)c2)ccn2c(=O)c(C(=O)O)cc(C3CC3)c12 [Example 11 K salt]
Reply text: ≤ 4 ng/mL

Inquiry: Identify measured MIC associated with Cc1ccc(-c2ccn3c(=O)c(C(=O)O)cc(C4CC4)c3c2C)cc1 [Example 33 K salt]
Reply text: 16 to 32 ng/mL

====

Record form. Attribute: MIC. Fill in for each entry.
# System: Burkholderia mallei ATCC 23344
# method-summary: microbe, parasite or virus in culture
# Format: cell-based
# condition-notes: ATCC23344
Counter-ions that a name gives are not always drawn.

Inquiry: Identify measured MIC associated with Cc1c(-c2ccc(N)c(F)c2)c(F)cn2c(=O)c(C(=O)O)cc(C3CC3)c12 [Example 1 K salt]
Reply text: 0.25 to 0.5 µg/mL

Inquiry: Identify measured MIC associated with Cc1c(-c2ccc(CN)cc2)ccn2c(=O)c(C(=O)O)cc(C3CC3)c12 [Example 31 K salt]
Reply text: 0.5 to 1 µg/mL

Inquiry: Identify measured MIC associated with Cc1c(-c2ccc(Cl)cc2)ccn2c(=O)c(C(=O)O)cc(C3CC3)c12 [Example 45 K salt]
Reply text: 0.063 to 0.125 µg/mL

Inquiry: Identify measured MIC associated with Cc1c(-c2cccc(N)c2)ccn2c(=O)c(C(=O)O)cc(C3CC3)c12 [Example 3 K salt]
Reply text: 0.5 to 1 µg/mL

Inquiry: Identify measured MIC associated with Cc1c(-c2cc(N)cc(F)c2)ccn2c(=O)c(C(=O)O)cc(C3CC3)c12 [Example 9 K salt]
Reply text: 0.125 to 0.25 µg/mL

Inquiry: Identify measured MIC associated with Cc1c(-c2cc(F)c(N)cc2F)ccn2c(=O)c(C(=O)O)cc(C3CC3)c12 [Example 28 K salt]
Reply text: 0.125 to 0.25 µg/mL

Inquiry: Identify measured MIC associated with Cc1c(-c2ccc(N)nc2)ccn2c(=O)c(C(=O)O)cc(C3CC3)c12 [Example 21 K salt]
Reply text: 0.125 to 0.25 µg/mL

====

# System: P. aeruginosa ATCC 27853
# method-summary: MIC, CLSI broth microdilution (Table 2)
# Format: cell-based
# condition-notes: Pseudomonas aeruginosa, ATCC27853; Gram negative; MHB, 37° C., 16-20 hours; read-out: MIC P. aeruginosa ATCC 27853
Where a name gives a salt, the structure may show the parent alone.
Record form. Attribute: MIC. Fill in for each entry.

Inquiry: Tell me MIC of CNc1ccc(-c2ccn3c(=O)c(C(=O)O)cc(C4CC4)c3c2C)cc1 [Example 15 K salt] when tested on P. aeruginosa ATCC 27853.
Reply text: > 8 µg/mL

Inquiry: Tell me MIC of Cc1c(-c2cccnc2)ccn2c(=O)c(C(=O)O)cc(C3CC3)c12 [Example 17 K salt] when tested on P. aeruginosa ATCC 27853.
Reply text: 2 to 4 µg/mL

Inquiry: Tell me MIC of Cc1c(-c2ccc(N(C)C)cc2)ccn2c(=O)c(C(=O)O)cc(C3CC3)c12 [Example 25 K salt] when tested on P. aeruginosa ATCC 27853.
Reply text: > 8 µg/mL

Inquiry: Tell me MIC of Cc1c(-c2ccc(C(=O)O)cc2)ccn2c(=O)c(C(=O)O)cc(C3CC3)c12 [Example 37 K salt] when tested on P. aeruginosa ATCC 27853.
Reply text: > 8 µg/mL

Inquiry: Tell me MIC of Cc1c(-c2cc(F)c(N)cc2F)c(F)cn2c(=O)c(C(=O)O)cc(C3CC3)c12 [Example 38 K salt] when tested on P. aeruginosa ATCC 27853.
Reply text: > 8 µg/mL

====

Record form. Attribute: MIC. Fill in for each entry.
# Tested on: E. faecium ATCC 19434
# method-summary: MIC, CLSI broth microdilution (Table 1)
# Assay type: cell-based
# condition-notes: Enterococcus faecium, ATCC19434; Gram positive; MHB, 37° C., 16-20 hours; read-out: MIC E. faecium ATCC 19434
Counter-ions that a name gives are not always drawn.
Answer in µg/mL, number only, no unit symbol.

Inquiry: Identify measured MIC associated with Cc1c(-c2ccc(N)c(Cl)c2)ccn2c(=O)c(C(=O)O)cc(C3CC3)c12 [Example 11 K salt]
Reply text: 0.25

Inquiry: Identify measured MIC associated with Cc1c(-c2cccc(F)c2)ccn2c(=O)c(C(=O)O)cc(C3CC3)c12 [Example 10 K salt]
Reply text: 0.5

Inquiry: Identify measured MIC associated with Cc1c(-c2cccnc2)ccn2c(=O)c(C(=O)O)cc(C3CC3)c12 [Example 17 K salt]
Reply text: 1

Inquiry: Identify measured MIC associated with `C[C@H]1COc2c(N3CCN(C)CC3)c(F)cc3c(=O)c(C(=O)O)cn1c23`
Reply text: 8

Inquiry: Identify measured MIC associated with Cc1c(-c2cc[nH]c2)ccn2c(=O)c(C(=O)O)cc(C3CC3)c12 [Example 43 K salt]
Reply text: 4

====

# Tested on: A. baumannii ATCC 19606
# method-summary: MIC, CLSI broth microdilution (Table 2)
# Assay type: cell-based
# condition-notes: Acinetobacter baumannii, ATCC19606, read-out: MIC A. baumannii B. ATCC 19606
Structures can show the parent of a compound that is named as a salt.
Record form. Attribute: MIC. Fill in for each entry.

Inquiry: Identify measured MIC associated with Cc1c(-c2ccncc2)ccn2c(=O)c(C(=O)O)cc(C3CC3)c12 [Example 16 K salt]
Reply text: 0.125 µg/mL

Inquiry: Identify measured MIC associated with Cc1c(-c2ccc(CO)cc2)ccn2c(=O)c(C(=O)O)cc(C3CC3)c12 [Example 48 K salt]
Reply text: 0.125 µg/mL

Inquiry: Identify measured MIC associated with Cc1c(-c2ccc(N)nc2)ccn2c(=O)c(C(=O)O)cc(C3CC3)c12 [Example 21 K salt]
Reply text: 0.064 to 0.125 µg/mL

Inquiry: Identify measured MIC associated with Cc1c(-c2ccc(N)c(F)c2)ccn2c(=O)c(C(=O)O)cc(C3CC3)c12 [Example 2 K salt]
Reply text: 0.125 µg/mL

Inquiry: Identify measured MIC associated with Cc1c(-c2ccc3[nH]ncc3c2)ccn2c(=O)c(C(=O)O)cc(C3CC3)c12 [Example 23 K salt]
Reply text: 0.125 µg/mL

Inquiry: Identify measured MIC associated with Cc1c(-c2cc(F)c(N)c(F)c2)ccn2c(=O)c(C(=O)O)cc(C3CC3)c12 [Example 39 K salt]
Reply text: 0.064 µg/mL

Inquiry: Identify measured MIC associated with Cc1c(-c2ccc(O)cc2)ccn2c(=O)c(C(=O)O)cc(C3CC3)c12 [Example 46 K salt]
Reply text: 0.064 µg/mL
